IC50 values by entry
System: SNU1;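 note: growth inhibition of human NCI-SNU-1 cells, measured with a cell viability assay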
Test: cells
Type: functional, cell-based
Details: Homo sapiens
Description: SANGER: Inhibition of human NCI-SNU-1 cell growth in a cell viability assay.

compound: C[C@]1(c2nc3c(C(N)=O)cccc3[nH]2)CCCN1 [VELIPARIB]
IC50: > 5000 nM
//
compound: O=c1[nH]c2ccccc2n1C1CCN(Cc2ccc(-c3nc4cc5[nH]cnc5cc4nc3-c3ccccc3)cc2)CC1
IC50: > 2560 nM
//
compound: C/C(O)=C(\C#N)C(=O)Nc1cc(Br)ccc1Br
IC50: > 16000 nM
//
compound: CC(O)(CS(=O)(=O)c1ccc(F)cc1)C(=O)Nc1ccc(C#N)c(C(F)(F)F)c1 (stereo not given) [BICALUTAMIDE]
IC50: > 1020 nM

Switching to the query record.
Problem: Quick one: IC50 of Cc1nc(Nc2ncc(C(=O)Nc3c(C)cccc3Cl)s2)cc(N2CCN(CCO)CC2)n1 [DASATINIB] ?
Solution: > 1280 nM

====

# maps each entry to its pIC50
Tested on: COLO-679
Experiment: cells
Type: functional, cell-based
Conditions: Homo sapiens
Description: SANGER: Inhibition of human COLO-679 cell growth in a cell viability assay.
pIC50: −log10 of the molar value.

smilesCode: C/C=C(/C)C(=O)O[C@H]1C(C)=C2[C@H]([C@@H]1OC(=O)CCCCCCC)[C@@](C)(OC(C)=O)C[C@H](OC(=O)CCC)[C@@]1(O)[C@H]2OC(=O)[C@@]1(C)O
pIC50: > 8.70
//
smilesCode: O=c1[nH]c2ccccc2n1C1CCN(Cc2ccc(-c3nc4cc5[nH]cnc5cc4nc3-c3ccccc3)cc2)CC1
pIC50: < 5.59

// next item, pIC50 requested
Problem: # get_value(readout='pIC50', item= N#C/C(=C1/Nc2ccccc2S1)c1ccnc(NCCc2cccnc2)n1 )
Solution: < 5.10

====

Tested on: SJSA-1;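 note: growth inhibition of human SJSA-1 cells, read out through a cell viability measurement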
Assay: cells
Format: functional, cell-based
Conditions: Homo sapiens
Description: SANGER: Inhibition of human SJSA-1 cell growth in a cell viability assay.
pIC50: −log10 of the molar value.
This listing pairs molecules with measured pIC50.

smilesCode: Cn1cc(/C=C2\C(=O)Nc3cccnc32)c2ccccc21
assayMetric: pIC50
reading: < 5.70
--
smilesCode: C/C(O)=C(\C#N)C(=O)Nc1cc(Br)ccc1Br
assayMetric: pIC50
reading: < 4.80
--
smilesCode: C[C@]1(c2nc3c(C(N)=O)cccc3[nH]2)CCCN1
assayMetric: pIC50
reading: < 5.30

Problem: Reported pIC50, molecule Cc1[nH]c(/C=C2\C(=O)Nc3ccc(S(=O)(=O)Cc4c(Cl)cccc4Cl)cc32)c(C)c1C(=O)N1CCC[C@@H]1CN1CCCC1 : ____
Solution: < 5.70

====

Tested on: KM-H2;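 note: growth inhibition of KM-H2 cells, read out by a cell viability assay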
Assay: cells
Type: functional, cell-based
Conditions: Homo sapiens
Description: SANGER: Inhibition of human KM-H2 cell growth in a cell viability assay.
Recorded measurements of IC50, one per entry

Some entries whose results are on file:
molecule: CCNc1cc(N[C@H]2CC[C@@H](O)CC2)nc(Nc2ccc3c(ccn3Cc3ccccc3)c2)n1
assayMetric: IC50
reading: > 5.12 µM
--
molecule: Cc1nc(Nc2ncc(C(=O)Nc3c(C)cccc3Cl)s2)cc(N2CCN(CCO)CC2)n1 [DASATINIB]
assayMetric: IC50
reading: > 1.28 µM
--
molecule: C[C@]1(c2nc3c(C(N)=O)cccc3[nH]2)CCCN1 [VELIPARIB]
assayMetric: IC50
reading: > 5 µM

Please find the next molecule below.
Problem: # IC50 lookup, item CCCS(=O)(=O)Nc1ccc(F)c(C(=O)c2c[nH]c3ncc(Cl)cc23)c1F [PLX-4720]
Solution: > 10 µM
